- assay-info: Cytotoxic Profiling in HEK 293 Cell Line of Diverse Libraries Using Quantitative High-Throughput Screening; further: nearly all actives have a fitted effect of over 60% in size
- test-settings: HEK 293 viability, ATP luminescence (CellTiter-Glo), 48-72 h; series mostly up to 115 µM
Out of some 94,000 compounds screened, about 6,200 (6.6%) were called active. Roughly 31% stayed inconclusive and do not appear here. The call rests on the fitted dose curve; in most records, active means well fitted inhibition curve with a large enough effect; inconclusive means small, poorly fitted or top-dose-only effect; inactive means flat fitted curve, though single readings scatter. The full list was thinned out, with actives kept by preference.
Outcomes: Y (active), N (inactive)

{"compound": "O=C(Cc1ccccc1)N1[C@H]2CC[C@@H]1c1cnc(-c3ccc(F)cc3)nc1C2", "assigned-label": "Y"}
{"compound": "Cc1ncc2c(n1)C[C@@H]1CC[C@H]2N1S(=O)(=O)c1ccc(F)cc1", "assigned-label": "N"}
{"compound": "Cc1nc(-c2ccccc2)cc([C@H]2CN3CC[C@H]2C[C@@H]3CNC2CCN(C)CC2)n1", "assigned-label": "Y"}
{"compound": "Cn1cnc(S(=O)(=O)N2[C@H]3CC[C@@H]2c2cnc(-c4ccc(F)cc4)nc2C3)c1", "assigned-label": "N"}
{"compound": "Cc1nc(-c2ccccc2)cc([C@H]2CN3CC[C@H]2C[C@@H]3CNC2CCOCC2)n1", "assigned-label": "Y"}
{"compound": "COc1ccccc1-c1ccc(N2CC3CC(C2)c2cccc(=O)n2C3)nn1 (stereo not given)", "assigned-label": "N"}
{"compound": "CCOc1ccc(C(=O)N2CCC3(CC2)c2nccn2-c2ccccc2CN3C)cc1", "assigned-label": "N"}
{"compound": "CN(C)C(=O)[C@H]1CN2CCC1C[C@@H]2Cn1cc(-c2ccc(-c3ccccc3)cc2)nn1 (stereo not given in full)", "assigned-label": "N"}
{"compound": "Cc1ncc2c(n1)C[C@@H]1CC[C@H]2N1C(=O)c1ccccn1", "assigned-label": "N"}
{"compound": "COCC1CN(Cc2ccsc2)CC12CCNCC2 (stereo not given)", "assigned-label": "N"}

Data provenance is PubChem BioAssay AID1345083.
